Values compiled from patent US12435046B2.

# Tested On: EGFR wt (Homo sapiens)
# Construct: expressed in transfected cells; host or cells: BaF3 (murine pro-B) cells, retroviral transduction with pMXs-IRES-Blasticidin
# Sequence (P00533 25-1210): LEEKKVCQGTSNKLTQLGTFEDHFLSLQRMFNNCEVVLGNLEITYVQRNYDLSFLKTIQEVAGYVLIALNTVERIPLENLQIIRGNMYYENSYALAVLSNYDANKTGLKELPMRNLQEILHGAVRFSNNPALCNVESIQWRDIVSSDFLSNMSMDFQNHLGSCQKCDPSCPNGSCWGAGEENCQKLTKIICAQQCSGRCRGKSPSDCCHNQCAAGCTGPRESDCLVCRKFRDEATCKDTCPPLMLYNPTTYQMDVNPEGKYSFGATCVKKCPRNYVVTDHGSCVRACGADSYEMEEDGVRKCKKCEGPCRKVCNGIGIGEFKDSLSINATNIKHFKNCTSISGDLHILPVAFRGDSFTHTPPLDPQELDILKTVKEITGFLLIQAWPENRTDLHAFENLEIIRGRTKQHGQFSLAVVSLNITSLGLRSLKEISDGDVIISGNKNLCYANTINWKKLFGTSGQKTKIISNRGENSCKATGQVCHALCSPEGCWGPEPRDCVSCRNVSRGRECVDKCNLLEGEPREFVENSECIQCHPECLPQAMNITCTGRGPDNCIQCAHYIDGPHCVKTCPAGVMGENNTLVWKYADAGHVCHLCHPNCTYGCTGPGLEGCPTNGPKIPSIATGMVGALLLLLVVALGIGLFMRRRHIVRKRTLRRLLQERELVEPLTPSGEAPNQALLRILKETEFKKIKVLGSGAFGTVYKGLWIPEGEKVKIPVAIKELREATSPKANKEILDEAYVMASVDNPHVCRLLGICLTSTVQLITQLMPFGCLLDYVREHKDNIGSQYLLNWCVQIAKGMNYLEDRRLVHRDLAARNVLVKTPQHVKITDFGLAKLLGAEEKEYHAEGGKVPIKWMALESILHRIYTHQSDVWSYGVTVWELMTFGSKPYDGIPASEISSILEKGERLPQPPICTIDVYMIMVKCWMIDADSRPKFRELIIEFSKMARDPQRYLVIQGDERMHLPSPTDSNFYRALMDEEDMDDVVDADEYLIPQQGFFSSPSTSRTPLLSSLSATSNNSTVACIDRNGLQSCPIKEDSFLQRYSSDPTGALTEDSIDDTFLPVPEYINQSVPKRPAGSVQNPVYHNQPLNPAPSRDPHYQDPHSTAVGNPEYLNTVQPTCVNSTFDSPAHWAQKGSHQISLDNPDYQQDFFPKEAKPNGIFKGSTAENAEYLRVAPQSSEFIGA
# Protocol Summary: BaF3 cell proliferation assay (CellTiterGlo), EGFR wt
# Assay type: cell-based
# Assay Conditions: Table A; BaF3 cells, 3 days
pIC50: −log10 of the molar value.
Entries annotated with measured pIC50
Property Name: pIC50

[[record]]
molecule = "C=CC(=O)Nc1cc2c(Nc3ccc(Cl)c(Cl)c3F)ncnc2cc1C#C[C@]12C[C@H]1CN(C)C2 [Compound 33]"
property_name = "pIC50"
value = "≥ 7.30"

[[record]]
molecule = "C=CC(=O)Nc1cc2c(Nc3cccc(Cl)c3F)ncnc2cc1C#CC1(C)CN(C)C2(COC2)C1 (stereo not shown) [Compound 47]"
property_name = "pIC50"
value = "< 6.30"

[[record]]
molecule = "COC(=O)Nc1cc2c(Nc3cccc(Cl)c3F)ncnc2cc1C#CC1(C)CCN(C)C1 (stereo not shown) [Compound 43]"
property_name = "pIC50"
value = "≥ 7.30"

[[record]]
molecule = "C=CC(=O)Nc1cc2c(Nc3ccc(OCc4ccccn4)c(Cl)c3)ncnc2cc1C#CC1(C)CCCN(C)C1 (stereo not shown) [Compound 67]"
property_name = "pIC50"
value = "< 6.30"

